Data provenance: ChEMBL document CHEMBL6092162

System: Candida albicans
test method notes: Antifungal activity against fluconazole and iodiconazole resistant Candida albicans clinical isolate 17# assessed as inhibition of fungal growth by CLSI M27-A3 guidelines based method
Type: functional
Recorded MIC80 by entry
Respond with the bare value in µg/mL.

Worked examples, 4 compounds total:
compound	MIC80 (µg/mL)
CN(Cc1ccc(N2CCN(Cc3ccc(Cl)cc3Br)CC2)cc1)CC(O)(Cn1cncn1)c1ccc(F)cc1F (stereo not given)	1
CN(Cc1ccc(I)cc1)CC(O)(Cn1cncn1)c1ccc(F)cc1F (stereo not given)	0.25
CN(Cc1ccc(N2CCN(Cc3ccc(F)cc3Br)CC2)cc1)CC(O)(Cn1cncn1)c1ccc(F)cc1F (stereo not given)	0.063
CN(Cc1ccc(N2CCN(Cc3cccc(Br)c3)CC2)cc1)CC(O)(Cn1cncn1)c1ccc(F)cc1F (stereo not given)	0.063

Q: Supply MIC80 measured with Candida albicans for CN(Cc1ccc(N2CCN(Cc3ccccc3Br)CC2)cc1)CC(O)(Cn1cncn1)c1ccc(F)cc1F (stereo not given) .
Ans: 0.063

###

Test system: Candida albicans
test method notes: Antifungal activity against Candida albicans GIM 2.194 assessed as inhibition of fungal growth by CLSI M27-A3 guidelines based method
Assay type: functional
Recorded MIC80 by entry
Respond with the bare value in µg/mL.

Worked examples, 10 compounds total:
compound	measured value
OC(Cn1cncn1)(Cn1cncn1)c1ccc(F)cc1F	0.5
CN(Cc1ccc(N2CCN(Cc3cc(F)ccc3Br)CC2)cc1)CC(O)(Cn1cncn1)c1ccc(F)cc1F (configuration not stated)	0.025
CN(Cc1ccc(N2CCN(Cc3cccc(Br)c3)CC2)cc1)CC(O)(Cn1cncn1)c1ccc(F)cc1F (configuration not stated)	0.013
CN(Cc1ccc(N2CCN(Cc3ccccc3)CC2)cc1)CC(O)(Cn1cncn1)c1ccc(F)cc1F (configuration not stated)	0.013
CC(C)C(=O)N1CCN(c2ccc(CN(C)CC(O)(Cn3cncn3)c3ccc(F)cc3F)cc2)CC1 (configuration not stated)	1
CN(Cc1ccc(N2CCN(Cc3ccc(Cl)cc3)CC2)cc1)CC(O)(Cn1cncn1)c1ccc(F)cc1F (configuration not stated)	0.05
CC(=O)N1CCN(c2ccc(CN(C)CC(O)(Cn3cncn3)c3ccc(F)cc3F)cc2)CC1 (configuration not stated)	0.1
CN(Cc1ccc(N2CCN(Cc3cc(Cl)ccc3Br)CC2)cc1)CC(O)(Cn1cncn1)c1ccc(F)cc1F (configuration not stated)	0.013
CCC(=O)N1CCN(c2ccc(CN(C)CC(O)(Cn3cncn3)c3ccc(F)cc3F)cc2)CC1 (configuration not stated)	0.5
CN(Cc1ccc(N2CCN(Cc3ccc(-c4ccccc4)cc3)CC2)cc1)CC(O)(Cn1cncn1)c1ccc(F)cc1F (configuration not stated)	0.025

Q: For the compound Cc1ccc(CN2CCN(c3ccc(CN(C)CC(O)(Cn4cncn4)c4ccc(F)cc4F)cc3)CC2)cc1 (configuration not stated) , give its measured MIC80 value.
Ans: 0.2

Q: For the compound CN(Cc1ccc(N2CCN(Cc3ccc(F)cc3Br)CC2)cc1)CC(O)(Cn1cncn1)c1ccc(F)cc1F (configuration not stated) , give its measured MIC80 value.
Ans: 0.013

Q: For the compound CN(Cc1ccc(N2CCN(Cc3ccc(C(F)(F)F)cc3)CC2)cc1)CC(O)(Cn1cncn1)c1ccc(F)cc1F (configuration not stated) , give its measured MIC80 value.
Ans: 0.013

Q: For the compound CN(Cc1ccc(N2CCN(Cc3ccccc3I)CC2)cc1)CC(O)(Cn1cncn1)c1ccc(F)cc1F (configuration not stated) , give its measured MIC80 value.
Ans: 0.013

Q: For the compound CC(C)N1CCN(c2ccc(CN(C)CC(O)(Cn3cncn3)c3ccc(F)cc3F)cc2)CC1 (configuration not stated) , give its measured MIC80 value.
Ans: 8

Q: For the compound CN(Cc1ccc(N2CCN(Cc3ccc(Br)cc3Br)CC2)cc1)CC(O)(Cn1cncn1)c1ccc(F)cc1F (configuration not stated) , give its measured MIC80 value.
Ans: 0.013

Q: For the compound CN(Cc1ccc(N2CCN(C(=O)c3ccccc3)CC2)cc1)CC(O)(Cn1cncn1)c1ccc(F)cc1F (configuration not stated) , give its measured MIC80 value.
Ans: 0.013

###

test method notes: Selectivity index, ratio of IC50 for HEK293T cells to MIC80 for Candida albicans SC5314
Type: toxicity, cell-based
condition label: human, HEK293T cells versus Candida albicans SC5314; read-out: Selectivity Index
value kind: Selectivity ratio
API doc: respond with a numeric literal and nothing else, no unit.

Q: For the compound CN(Cc1ccc(N2CCN(Cc3ccc(F)cc3Br)CC2)cc1)CC(O)(Cn1cncn1)c1ccc(F)cc1F (stereo unspecified) , give its measured Selectivity ratio value.
Ans: 798

###

test method notes: Cmax in Sprague-Dawley rat at 10 mg/kg, po by LC-MS/MS analysis
Type: ADME, organism-based
condition label: in vivo
value kind: Cmax
Write down the value, and be sure its unit follows.

Q: For the compound CN(Cc1ccc(N2CCN(Cc3ccc(F)cc3Br)CC2)cc1)CC(O)(Cn1cncn1)c1ccc(F)cc1F (stereo unspecified) , give its measured Cmax value.
Ans: 10.6 ng/mL

###

test method notes: Cytotoxicity against human OVCAR-3 cells assessed as inhibition of cell growth incubated for 72 hrs by MTT assay
Type: toxicity, cell-based
value kind: IC50 at 72 h

Worked examples, 2 molecules total:
molecule	IC50 at 72 h
CN(Cc1ccc(I)cc1)CC(O)(Cn1cncn1)c1ccc(F)cc1F (stereo not drawn)	> 10 µM
CN(Cc1ccc(N2CCN(Cc3ccc(F)cc3Br)CC2)cc1)CC(O)(Cn1cncn1)c1ccc(F)cc1F (stereo not drawn)	7.72 µM

Q: For the molecule OC(Cn1cncn1)(Cn1cncn1)c1ccc(F)cc1F , give its measured IC50 at 72 h value.
Ans: > 40 µM

###

test method notes: Apparent volume of distribution in Sprague-Dawley rat at 3 mg/kg, iv by LC-MS/MS analysis
Assay type: ADME, organism-based
condition label: in vivo
value kind: Vz (L/kg)
Respond with the bare value in L/kg.

Q: For the molecule CN(Cc1ccc(N2CCN(Cc3ccc(F)cc3Br)CC2)cc1)CC(O)(Cn1cncn1)c1ccc(F)cc1F (stereo unspecified) , give its measured Vz value.
Ans: 4.89

###

test method notes: Tmax in Sprague-Dawley rat at 10 mg/kg, po by LC-MS/MS analysis
Type: ADME, organism-based
condition label: in vivo
value kind: Tmax (h)
Respond with the bare value in h.

Q: For the compound CN(Cc1ccc(N2CCN(Cc3ccc(F)cc3Br)CC2)cc1)CC(O)(Cn1cncn1)c1ccc(F)cc1F (stereo unspecified) , give its measured Tmax value.
Ans: 1

###

System: Candida tropicalis
test method notes: Antifungal activity against Candida tropicalis GIM 2.183 assessed as inhibition of fungal growth by CLSI M27-A3 guidelines based method
Type: functional
Labelling: MIC80 reported below 0.1 µg/mL becomes t; at or above becomes f.

Here are 4 molecules together with their reported answers.
molecule	assigned label
CN(Cc1ccc(N2CCN(Cc3ccc(Br)cc3)CC2)cc1)CC(O)(Cn1cncn1)c1ccc(F)cc1F (stereo not drawn)	t
CN(Cc1ccc(N2CCN(Cc3cccc(Cl)c3)CC2)cc1)CC(O)(Cn1cncn1)c1ccc(F)cc1F (stereo not drawn)	t
CN(Cc1ccc(I)cc1)CC(O)(Cn1cncn1)c1ccc(F)cc1F (stereo not drawn)	t
CN(Cc1ccc(N2CCN(Cc3ccc([N+](=O)[O-])cc3)CC2)cc1)CC(O)(Cn1cncn1)c1ccc(F)cc1F (stereo not drawn)	t

Q: Say whether its MIC80 is strictly beneath 0.1 µg/mL. Entry: CN(Cc1ccc(N2CCN(Cc3ccc(OC(F)(F)F)cc3)CC2)cc1)CC(O)(Cn1cncn1)c1ccc(F)cc1F (stereo not drawn)
Ans: t

Q: Say whether its MIC80 is strictly beneath 0.1 µg/mL. Entry: CN(Cc1ccc(N2CCN(Cc3ccccc3Cl)CC2)cc1)CC(O)(Cn1cncn1)c1ccc(F)cc1F (stereo not drawn)
Ans: t

Q: Say whether its MIC80 is strictly beneath 0.1 µg/mL. Entry: CC(C)c1ccc(CN2CCN(c3ccc(CN(C)CC(O)(Cn4cncn4)c4ccc(F)cc4F)cc3)CC2)cc1 (stereo not drawn)
Ans: f

Q: Say whether its MIC80 is strictly beneath 0.1 µg/mL. Entry: CN(Cc1ccc(N2CCN(Cc3ccccc3F)CC2)cc1)CC(O)(Cn1cncn1)c1ccc(F)cc1F (stereo not drawn)
Ans: t

Q: Say whether its MIC80 is strictly beneath 0.1 µg/mL. Entry: CN(Cc1ccc(N2CCN(Cc3cccc(Br)c3)CC2)cc1)CC(O)(Cn1cncn1)c1ccc(F)cc1F (stereo not drawn)
Ans: t

Q: Say whether its MIC80 is strictly beneath 0.1 µg/mL. Entry: CC(C)N1CCN(c2ccc(CN(C)CC(O)(Cn3cncn3)c3ccc(F)cc3F)cc2)CC1 (stereo not drawn)
Ans: f

Q: Say whether its MIC80 is strictly beneath 0.1 µg/mL. Entry: CN1CCN(c2ccc(CN(C)CC(O)(Cn3cncn3)c3ccc(F)cc3F)cc2)CC1 (stereo not drawn)
Ans: f

Q: Say whether its MIC80 is strictly beneath 0.1 µg/mL. Entry: CN(Cc1ccc(N2CCN(Cc3ccc(F)cc3Br)CC2)cc1)CC(O)(Cn1cncn1)c1ccc(F)cc1F (stereo not drawn)
Ans: t
